What inhibition was measured for each of the following?
target: Hexose transporter 1 (Plasmodium falciparum) (UniProt O97467); experiment: ST_JUDE_LEISH: Cytotoxicity at 2uM final concentration against transgenic Leishmania Mexicana promastigotes LmPfHT that are glucose transport deficient and complemented with the Plasmodium falciparum hexose transporter. Activity is measured by DNA content using SYBR green in vitro; format: functional
Note: unit % is implicit; provide only the numeric part.

Request: Requested field: inhibition. Item: Cc1cc(N)cc2nc(-c3ccc(N)cc3)[nH]c12
Result: 2.43

Request: Requested field: inhibition. Item: COc1cc2nc(NCCn3cccn3)nc(NCCc3ccccc3)c2cc1OC
Result: 3.02

Request: Requested field: inhibition. Item: CC(C)CNCc1cccc(-c2cccc(CN(CCCN3CCN(C)CC3)C(=O)CCC3CCCC3)c2)c1
Result: 3.07

Request: Requested field: inhibition. Item: CC(=O)Nc1cccc(C(=O)Nc2nc3ccc(-c4cc(=O)[nH]c(Nc5ccccc5Cl)n4)cc3[nH]2)c1
Result: 2.23

Request: Requested field: inhibition. Item: CC(C)N1CCN(C(=O)c2ccc(CNCCCN3CCN(c4cccc(Cl)c4Cl)CC3)o2)CC1
Result: -1.41

Request: Requested field: inhibition. Item: CC(C)(C)c1ccc(S(=O)(=O)Nc2ccccc2N2CCOCC2)cc1
Result: 4.11

Request: Requested field: inhibition. Item: O=C(c1ccc(-c2ccc(Cl)cc2)o1)N1CCc2cc3nccc(N4CCN5CCC[C@H]5C4)c3cc21
Result: 0.64

Request: Requested field: inhibition. Item: COc1ccc(-c2ccc(CNCc3ccsc3)cc2)cc1S(=O)(=O)NCCN1CCCC1
Result: 0.23

Request: Requested field: inhibition. Item: Cc1cccc(-n2c(Nc3ccc(C)c(Cl)c3)nc3ccc(S(=O)(=O)NC(C)C(C)C)cc32)c1 (configuration not stated)
Result: 1.5

Request: Requested field: inhibition. Item: Cc1cc(NC(=O)NCCN2CCC(NC(=O)c3ccc(F)cc3)CC2)c2ccccc2n1
Result: -0.3

Request: Requested field: inhibition. Item: O=C(NC1CCN(Cc2ccc(O)cc2)CC1)c1ccc(Cl)c(Cl)c1
Result: 4.25

Request: Requested field: inhibition. Item: COC(=O)CCn1c(C2CCN(CC3CCC(NC(=O)/C=C/c4ccc(Cl)c(Cl)c4)CC3)CC2)nc2ccccc21 (configuration not stated)
Result: 2.03

* * *

What inhibition was measured for each of the following?
molecular target: Hexose transporter 1 (Plasmodium falciparum); test: ST_JUDE_LEISH: Cytotoxicity at 2uM final concentration against transgenic Leishmania Mexicana promastigotes LmPfHT that are glucose transport deficient and complemented with the Plasmodium falciparum hexose transporter. Activity is measured by DNA content using SYBR green in vitro; assay type: functional
Note: unit % is implicit; provide only the numeric part.

Request: Requested field: inhibition. Item: Cc1onc(-c2ccccc2)c1-c1nc(NC2CCCC(C)C2)no1 (centres undefined)
Result: -1.49

Request: Requested field: inhibition. Item: CCCc1cc(=O)[nH]c(-n2nc(C)cc2NC(=O)CC(c2ccccc2)c2ccccc2)n1
Result: 1

Request: Requested field: inhibition. Item: Cc1c(CNCCCNc2nc3cscc3[nH]2)sc(C(F)F)c1Br
Result: 4.46

Request: Requested field: inhibition. Item: CC=CCON1C(=N)NC(=N)NC1(C)C
Result: 1.47

* * *

molecular target: Solute carrier family 2, facilitated glucose transporter member 1 (Homo sapiens); experiment: ST_JUDE_LEISH: Cytotoxicity at 2uM final concentration against transgenic Leishmania Mexicana promastigotes LmGLUT1 that are glucose transport deficient and complemented with the human glucose transporter GLUT1. Activity is measured by DNA content using SYBR green in vitro; format: functional
What inhibition was measured for each of the following?
Note: unit % is implicit; provide only the numeric part.

Request: Requested field: inhibition. Item: CCCCCN1CCC(NC(=O)c2ccc(C(=O)Nc3ccc(C(C)C)cc3)cc2)CC1
Result: -0.86

Request: Requested field: inhibition. Item: Clc1ccc(Nc2nc(-c3ccccn3)cs2)nc1
Result: 67.7

Request: Requested field: inhibition. Item: COc1ccc2nccc([C@@H](O)CN3CCC(NC(=O)/C=C/c4cccc(C)c4)CC3)c2c1
Result: 11

This collection of values is drawn from ChEMBL document CHEMBL3433997.
